Values from paper PMC10095102

Here the recorded relative activity of ChFatB2 (thioesterase, DTNB assay) is given for each entry.
Molecular target: T1, acyl-ACP thioesterase ChFatB2 from Cuphea hookeriana, excluding the transit peptide (residues 129-395) (Cuphea hookeriana, UniProt Q39514 129-395)
T1 sequence (looked up): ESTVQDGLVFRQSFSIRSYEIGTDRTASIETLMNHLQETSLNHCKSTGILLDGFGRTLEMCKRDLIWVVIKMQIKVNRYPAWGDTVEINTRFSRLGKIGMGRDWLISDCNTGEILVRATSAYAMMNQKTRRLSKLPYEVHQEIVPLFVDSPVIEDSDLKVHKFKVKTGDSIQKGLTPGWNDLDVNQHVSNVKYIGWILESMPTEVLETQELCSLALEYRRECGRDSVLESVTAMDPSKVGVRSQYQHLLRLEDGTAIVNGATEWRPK
Assay: cell-based or functional assay
Enter your answer as a number in µmol/min/mg; do not include the unit.

Recorded relative activity of ChFatB2 (thioesterase, DTNB assay), per entry:
{"BINDER": "C8-acyl acyl carrier protein 2 from Cuphea lanceolata (residues 54-137) (natural protein, UniProt P52412 54-137, looked up, C8 (8:0) acyl chain on the phosphopantetheine of holo-ACP (residue not given), acyl carrier protein ClACP2, Cuphea lanceolata, UniProt P52412, residues 54-137, excluding the chloroplast transit peptide; also called C8-ClACP2) QAKPETVTKVCNIVKKQLALPDDSDVSGVSKFSALGADSLDTVEIVMGLEEEFGISVEEESAQSIQTVQDAADLIEKLMEKKGH", "MEASURED_VALUE": 0.51}
{"BINDER": "C10-acyl acyl carrier protein 2 from Cuphea lanceolata (residues 54-137) (natural protein, UniProt P52412 54-137, looked up, C10 (10:0) acyl chain on the phosphopantetheine of holo-ACP (residue not given), acyl carrier protein ClACP2, Cuphea lanceolata, UniProt P52412, residues 54-137, excluding the chloroplast transit peptide; also called C10-ClACP2) QAKPETVTKVCNIVKKQLALPDDSDVSGVSKFSALGADSLDTVEIVMGLEEEFGISVEEESAQSIQTVQDAADLIEKLMEKKGH", "MEASURED_VALUE": 0.33}

Task item: Quick check: relative activity of ChFatB2 (thioesterase, DTNB assay) of C10-acyl acyl carrier protein from Escherichia coli (natural protein, C10 (10:0) acyl chain on the phosphopantetheine of holo-ACP (residue not given), also called C10-EcACP) STIEERVKKIIGEQLGVKQEEVTNNASFVEDLGADSLDTVELVMALEEEFDTEIPDEEAEKITTVQAAIDYINGHQA ?
Reply: 0.17

Task item: Requested field: relative activity of ChFatB2 (thioesterase, DTNB assay). Item: C8-acyl acyl carrier protein from Escherichia coli (natural protein, C8 (8:0) acyl chain on the phosphopantetheine of holo-ACP (residue not given), also called C8-EcACP; C8-ACP) STIEERVKKIIGEQLGVKQEEVTNNASFVEDLGADSLDTVELVMALEEEFDTEIPDEEAEKITTVQAAIDYINGHQA
Reply: 0.07
